Molecular target: CD209 antigen (Homo sapiens, UniProt Q9NNX6)
Sequence (Q9NNX6 whole entry): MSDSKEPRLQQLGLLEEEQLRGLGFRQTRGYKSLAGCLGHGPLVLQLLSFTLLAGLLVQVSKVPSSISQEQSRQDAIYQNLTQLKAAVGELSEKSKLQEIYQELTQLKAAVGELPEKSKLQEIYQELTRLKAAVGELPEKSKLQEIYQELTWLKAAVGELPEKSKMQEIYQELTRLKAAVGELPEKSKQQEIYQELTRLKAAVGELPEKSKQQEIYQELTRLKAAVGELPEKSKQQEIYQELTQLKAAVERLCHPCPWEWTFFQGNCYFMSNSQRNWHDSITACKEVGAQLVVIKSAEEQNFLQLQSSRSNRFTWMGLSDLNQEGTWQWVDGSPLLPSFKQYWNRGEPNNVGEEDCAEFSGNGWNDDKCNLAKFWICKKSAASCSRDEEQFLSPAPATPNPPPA
observation type: Ki (mM)
Record the value in mM, omitting the unit from your answer.

Enquiry: Entry under review: OC[C@H]1OC(O)[C@@H](O)[C@@H](O)[C@@H]1O (stereo partly drawn) [D-MANNOSE] . Reported Ki?
Return: 13.1
